details: Ebola virus entry assay, ratio channel
Calls of active or inactive are those of the source.
Outcomes: active, inactive

# compound, assigned_label
measured = [
    ("CC(Cc1ccc2c(c1)OCO2)NO (stereo unspecified)", "inactive"),
    ("O=C(CS)Nc1ccccc1", "inactive"),
    ("c1ccc2c(c1)Sc1ccccc1N2CC1CN2CCC1CC2 (stereo unspecified)", "active"),
    ("C[C@]12CC[C@H]3[C@@H](CCC4=CC(=O)CC[C@@]43C)[C@@H]1CC[C@@H]2C(=O)CO", "inactive"),
    ("CC1=C(C)C(=O)C(CCCCC#CCCCC#CCO)=C(C)C1=O", "inactive"),
    ("CCC(C)(C)c1ccc(CC(C)CN2C[C@@H](C)O[C@@H](C)C2)cc1 (stereo partly specified)", "inactive"),
]

###

details: Ebola virus entry assay, green fluorescence channel
Entries with a potency or affinity are not part of this list.
# label = bin(measured efficacy), where bins are bottom bin (below -10%), middle bin (-10% to below 30%), top bin (30% or more)

# compound, assigned_label
records = [
    ("O=C1CC2(CCCC2)CC(=O)N1CCCCN1CCN(c2ncccn2)CC1", "middle bin"),
    ("CC(C)(Cc1c[nH]c2ccccc12)NCC(O)COc1ccccc1C#N (centres undefined)", "top bin"),
    ("CC[n+]1c(-c2ccccc2)c2cc(N)ccc2c2ccc(N)cc21", "top bin"),
    ("CC/C(=C(/CC)c1ccc(O)cc1)c1ccc(O)cc1", "middle bin"),
    ("O=C1C(CCS(=O)c2ccccc2)C(=O)N(c2ccccc2)N1c1ccccc1 (centres undefined)", "middle bin"),
    ("CCC1(c2cccc(O)c2)CCCCN(C)C1 (centres undefined)", "top bin"),
    ("CCOCC(O)COc1ccc(NC(=O)CC[S+](C)C)cc1 (centres undefined)", "bottom bin"),
    ("Oc1ccc(O)cc1", "middle bin"),
    ("CC(O)Cn1cnc2c1c(=O)n(C)c(=O)n2C (centres undefined)", "middle bin"),
    ("CC(=O)OCC(=O)NCCCOc1cccc(CN2CCCCC2)c1", "bottom bin"),
    ("CC1(C)O[C@@H]2C[C@H]3[C@@H]4C[C@H](F)C5=CC(=O)CC[C@]5(C)[C@H]4[C@@H](O)C[C@]3(C)[C@]2(C(=O)CO)O1", "middle bin"),
    ("CC(C)NC(=O)c1ccc(C=O)cc1", "middle bin"),
    ("COc1ccc(CN(CCN(C)C)c2ncccn2)cc1", "bottom bin"),
    ("CC1(c2ccccc2)OC(C(=O)O)=CC1=O (centres undefined)", "bottom bin"),
    ("CCOC(=O)c1cccc(N)c1", "middle bin"),
    ("CC1=C(C)C(=O)C(CCCCC#CCCCC#CCO)=C(C)C1=O", "top bin"),
    ("CCC1(CC)C(=O)NC(=O)NC1=O", "bottom bin"),
    ("Nc1nc(=O)n([C@@H]2O[C@H](CO)[C@@H](O)[C@@H]2F)cc1I", "bottom bin"),
    ("N[C@H]1CN(c2c(F)cc3c(=O)c(C(=O)O)cn(C4C[C@@H]4F)c3c2Cl)CC12CC2 (some centres undefined)", "bottom bin"),
    ("NC(=O)Cc1cccc(C(=O)c2ccccc2)c1N", "middle bin"),
    ("C[C@H]1C[C@H]2[C@@H]3CCC4=CC(=O)C=C[C@]4(C)[C@@]3(Cl)[C@@H](O)C[C@]2(C)[C@@]1(O)C(=O)CO", "top bin"),
    ("Nc1ccc(N=Nc2ccccc2)c(N)n1", "bottom bin"),
]

###

conditions: Ebola virus entry assay, reporter ratio channel; Channel type: primary
Active and inactive are the calls of the source.

# compound, AC50
rows = [
    ("O=Cc1ccc(O)c(O)c1O", "inactive"),
    ("NCc1cccnc1", "inactive"),
    ("CN(C)C(=O)Oc1cccc([N+](C)(C)C)c1", "inactive"),
    ("O=C(O)CCC(=O)OC[C@@H](NC(=O)C(Cl)Cl)[C@H](O)c1ccc([N+](=O)[O-])cc1", "inactive"),
    ("CC(C)[N+](C)(CCC(C(N)=O)(c1ccccc1)c1ccccc1)C(C)C", "inactive"),
    ("ClCCCN1CCN(c2cccc(Cl)c2)CC1", "inactive"),
    ("Clc1ccc(C(Cn2ccnc2)OCc2c(Cl)cccc2Cl)c(Cl)c1 (stereo unspecified)", "8.91 µM (active)"),
    ("CC(=O)[C@H]1CC[C@H]2[C@@H]3CC=C4C[C@@H](O)CC[C@]4(C)[C@H]3CC[C@]12C", "inactive"),
    ("C=CCCCCCCCCC(=O)O", "inactive"),
    ("CC1=CC(=O)c2ccccc2C1=O", "inactive"),
    ("C[C@]12CCC(=O)C=C1[C@@H]1C[C@@H]1[C@H]1[C@@H]3[C@@H]4C[C@@H]4[C@@]4(CCC(=O)O4)[C@@]3(C)CC[C@@H]12", "39.8 µM (active)"),
]

###

target: Luciferin 4-monooxygenase (Photinus pyralis) (UniProt P08659); experiment: Biochemical firefly luciferase enzyme assay for NPC (AID 624030); note: nearly all actives have a fitted effect of over 70% in size; details: purified P. pyralis luciferase, luminescence, 5 min; series mostly up to 58.6 µM
Sequence (P08659 whole entry, looked up): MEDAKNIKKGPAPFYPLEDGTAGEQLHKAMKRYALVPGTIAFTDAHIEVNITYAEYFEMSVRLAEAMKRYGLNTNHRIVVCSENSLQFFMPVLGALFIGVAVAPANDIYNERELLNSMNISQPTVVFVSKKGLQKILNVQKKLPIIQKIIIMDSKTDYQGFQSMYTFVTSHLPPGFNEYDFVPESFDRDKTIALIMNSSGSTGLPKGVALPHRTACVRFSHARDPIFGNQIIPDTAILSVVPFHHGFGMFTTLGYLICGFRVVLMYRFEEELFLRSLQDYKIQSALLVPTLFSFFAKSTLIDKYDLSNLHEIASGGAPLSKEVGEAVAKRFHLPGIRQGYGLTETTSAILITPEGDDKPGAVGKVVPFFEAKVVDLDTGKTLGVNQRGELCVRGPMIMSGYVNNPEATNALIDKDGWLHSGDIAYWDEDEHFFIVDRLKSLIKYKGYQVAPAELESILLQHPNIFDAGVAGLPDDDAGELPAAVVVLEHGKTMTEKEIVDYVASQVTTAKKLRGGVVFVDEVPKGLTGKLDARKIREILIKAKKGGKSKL
Results filed as inconclusive are left out. Activity calls are given as the source filed them. Calls come from the whole dose curve; as a rule, active = well fitted inhibition curve with a large enough effect; inconclusive = small, poorly fitted or top-dose-only effect; inactive = flat fitted curve, though single readings scatter.
Outcome codes: 1 (yes) (active), 0 (no) (inactive)

# molecule, assigned_label
measured = [
    ("CCC1(c2ccccc2)CCC(=O)NC1=O (centres undefined)", "0 (no)"),
    ("NC1(c2ccccc2)CCCCC1", "0 (no)"),
    ("CCCN(CCC)CCc1c[nH]c2ccccc12", "0 (no)"),
    ("CC(CC(C#N)(c1ccccc1)c1ccccc1)N(C)C (centres undefined)", "0 (no)"),
    ("c1ccc(CCNc2nc(-c3ccccc3)cs2)cc1", "1 (yes)"),
    ("C[C@H]1CNCCc2ccc(Cl)cc21", "0 (no)"),
    ("CCC(=O)OC1(c2ccccc2)CCN(C)CC1", "0 (no)"),
    ("COc1ccc(CN2CCNCC2)c(OC)c1OC", "0 (no)"),
    ("CCC(=O)O[C@H]1CC[C@H]2[C@@H]3CCC4=CC(=O)CC[C@]4(C)[C@H]3CC[C@]12C", "0 (no)"),
    ("COP(=S)(OC)Oc1ccc(Sc2ccc(OP(=S)(OC)OC)cc2)cc1", "1 (yes)"),
    ("O=C(NC(=O)c1c(F)cccc1F)Nc1cc(Cl)c(OC(F)(F)C(F)C(F)(F)F)cc1Cl (centres undefined)", "0 (no)"),
    ("CCCCCCCCC(=O)NCc1ccc(O)c(OC)c1", "0 (no)"),
    ("C[C@]12C=CC(=O)C=C1CC[C@@H]1[C@@H]2CC[C@@]2(C)[C@H]1CC[C@]2(C)O", "0 (no)"),
    ("CCN(CC)Cc1nccn1-c1ccc([N+](=O)[O-])cc1C(=O)c1ccccc1Cl", "0 (no)"),
    ("C[N+](C)(C)CCCCCCCCCC[N+](C)(C)C", "0 (no)"),
    ("C[C@H]1C(=O)O[C@@H]2CCN3CC=C(COC(=O)[C@](C)(O)[C@]1(C)O)[C@H]23", "0 (no)"),
    ("CC(C)(O)C(Cl)(Cl)Cl", "0 (no)"),
    ("CC(C)C(Br)C(=O)NC(N)=O (centres undefined)", "0 (no)"),
    ("COc1cc(CC(C)N)cc2c1OCO2 (centres undefined)", "0 (no)"),
    ("COc1ccc2c(C(=O)c3ccc(Cl)cc3)c(C)n(CC(=O)O)c2c1", "0 (no)"),
    ("CN1C(=O)CN=C(c2ccccc2)c2cc(Cl)ccc21", "0 (no)"),
    ("C[C@]12CC[C@H]3[C@@H](CC=C4C[C@@H](O)CC[C@@]43C)[C@@H]1CC[C@@H]2O", "0 (no)"),
    ("ClC1=C(Cl)C2(Cl)C(CBr)CC1(Cl)C2(Cl)Cl (centres undefined)", "0 (no)"),
    ("Cc1nnc2n1-c1sc(CCc3ccc(CC(C)C)cc3)cc1C(c1ccccc1Cl)=NC2C (centres undefined)", "0 (no)"),
    ("O=C(CCl)c1ccc(Cl)cc1Cl", "0 (no)"),
    ("CCCCC1C(=O)NC(=O)N(C2CCCCC2)C1=O (centres undefined)", "0 (no)"),
    ("CN1C[C@@H](NS(=O)(=O)N(C)C)C[C@@H]2c3cccc4c3c(cn4C)C[C@H]21", "0 (no)"),
    ("N#Cc1nn(-c2c(Cl)cc(C(F)(F)F)cc2Cl)c(N)c1S(=O)C(F)(F)F (centres undefined)", "0 (no)"),
    ("CNC(=O)Oc1cccc2ccccc12", "0 (no)"),
    ("C[C@]12CC[C@H]3[C@@H](CCC4=CC(=O)CC[C@@H]43)[C@@H]1CC[C@@H]2O", "0 (no)"),
    ("CCOC(=O)NC(C)(C)Cc1ccc(Cl)cc1", "0 (no)"),
    ("CCCOC(=O)Cc1ccc(OCC(=O)N(CC)CC)c(OC)c1", "0 (no)"),
    ("CCC1(CC)C(=O)NC(=O)NC1=O", "0 (no)"),
    ("COc1ccc(C(=O)N2CCCC2=O)cc1", "0 (no)"),
    ("C[N+](C)(C)CCOC(=O)C(O)(c1ccccc1)c1ccccc1", "0 (no)"),
    ("O=C(O)CNC(=O)c1ccccc1I", "0 (no)"),
    ("COP(=O)(OC)OC=C(Cl)Cl", "0 (no)"),
    ("CCOC(=O)c1ncn2c1CN(C)C(=O)c1c(I)cccc1-2", "0 (no)"),
    ("COCC(=O)N(c1c(C)cccc1C)C(C)C(=O)OC (centres undefined)", "0 (no)"),
    ("NCc1cccnc1", "0 (no)"),
    ("CNC(C)Cc1ccc2c(c1)OCO2 (centres undefined)", "0 (no)"),
    ("CCc1cc(OC)c(C[C@H](C)N)cc1OC", "0 (no)"),
    ("CC(Cc1ccccc1)NCc1ccccc1Cl (centres undefined)", "0 (no)"),
    ("CCN(CC)C(C)C(=O)c1ccccc1 (centres undefined)", "0 (no)"),
    ("CNC(C)Cc1ccccc1OC (centres undefined)", "0 (no)"),
    ("c1ccc2c(c1)Sc1ccccc1N2CC1CN2CCC1CC2 (centres undefined)", "0 (no)"),
    ("O=C(O)Cc1ccccc1", "0 (no)"),
    ("Cc1nc2ccccc2c(=O)n1-c1ccccc1Cl", "0 (no)"),
    ("CCS(=O)(=O)C(C)(C)S(=O)(=O)CC", "0 (no)"),
]
